Values were extracted from patent US6737383B1.

Please provide measured Wheat plant response rating for the entries that follow.
Test system: wheat
Assay: Test B pre/postemergence wheat
Assay type: in vivo, Triticum aestivum
Conditions: Preemergence, Rate 500 g/ha; scale 0 to 10 (0 no effect, 10 complete control)
Give bare numbers.

[[record]]
compound = "CC(C)N(C(=O)n1oc(=O)n(C(C)c2ccccc2)c1=O)c1ccc(Cl)cc1 (stereo not shown)"
numeric_value = 0

[[record]]
compound = "CCN(C(=O)n1oc(=O)n(C(C)C)c1=O)c1nncs1"
numeric_value = 0

[[record]]
compound = "Cc1ccc(N(C(=O)n2oc(=O)n(C(C)C)c2=O)C(C)C)cc1"
numeric_value = 4


Moving on to the next compound.
In: Identify the measured Wheat plant response rating of CC(C)N(C(=O)n1oc(=O)n(CC2CO2)c1=O)c1ccc(F)cc1 (stereo not shown) for wheat.
Out: 0
